test system: MDA-MB-435; assay: NCI tumour cell line growth inhibition, 48 h
Where a SMILES comes first, the peptide text is derived from it. The star is where a group is joined. Boc = CC(C)(C)OC(=O)*; Bn = c1ccc(C*)cc1
readout.name: TGI

Q: Any idea what TGI was measured for CNc1cccc2c1C(C)C[C@]1(C)C(=O)Nc3ccccc3[C@H]21 (stereo partly specified) ?
Result: 53.4 µM

Q: Any idea what TGI was measured for "O=S1(=O)c2ccccc2-c2nccc3ccnc1c23" ?
Result: > 100 µM

Q: Any idea what TGI was measured for O=c1oc2c(cc1-c1ccccc1)C(O)Oc1ccccc1-2 (stereo unspecified) ?
Result: > 100 µM

Q: Any idea what TGI was measured for CC1(C)CC2C(/C1=N/O)C1(C)CCCC2(C)C1O (stereo unspecified) ?
Result: > 100 µM

Q: Any idea what TGI was measured for "C[C@@H]1CC[C@@H]2[C@@H]1[C@H](OC(=O)c1ccc3ccccc3c1)[C@]1(C3CCCCC3)C[C@@H](OC(=O)CO)[C@@]2(C)O1" ?
Result: 29.4 µM

Q: Any idea what TGI was measured for "Oc1ccccc1-c1n[nH]c(-c2ccccc2O)n1" ?
Result: > 100 µM

Q: Any idea what TGI was measured for "Cc1cccc2c(N=Nc3ccccc3[N+](=O)[O-])c(O)[nH]c12" ?
Result: > 100 µM

Q: Any idea what TGI was measured for "C/C(=C1/N=C(c2ccccc2)OC1=O)c1ccccc1" ?
Result: > 100 µM

Q: Any idea what TGI was measured for CC(CC(C)[C@H]1CCC2[C@H]3C(CC(=O)[C@@]21C)[C@@]1(C)CCC(O)C[C@H]1C[C@@H]3O)C(=O)O (stereo partly specified) ?
Result: > 100 µM

Q: Any idea what TGI was measured for "CCOc1ccc(NC(=O)c2cc3ccccc3cc2O)cc1" ?
Result: > 100 µM

Q: Any idea what TGI was measured for "C[n+]1cc2cc3c(cc2c2ccccc21)OCO3" ?
Result: 21 µM

Q: Any idea what TGI was measured for "O=C1C(CO)=C[C@@H](O)[C@H]2O[C@@H]12" ?
Result: 78.6 µM

Q: Any idea what TGI was measured for "Cc1ccc2nc(-c3ccc(-c4nc5ccc(C)cc5o4)c(O)c3)oc2c1" ?
Result: > 100 µM

Q: Any idea what TGI was measured for "Cc1ccc(NC(=O)N2CCCCC2)cc1[N+](=O)[O-]" ?
Result: > 100 µM

Q: Any idea what TGI was measured for "Cc1ccc(S(=O)(=O)OI(O)CC(F)(F)F)cc1" ?
Result: > 100 µM

Q: Any idea what TGI was measured for CC(C)(C)OC(=O)NC(Cc1ccc(OCc2ccccc2)cn1)C(N)=O (stereo unspecified) ?
Result: > 100 µM

Q: Any idea what TGI was measured for "Cc1cccc(/C=C2/C(=O)Nc3ccccc32)n1" ?
Result: 60.9 µM

Q: Any idea what TGI was measured for COC(=O)C(CC(C)C)NC(=O)CNC(=O)C(Cc1ccc(OCc2ccccc2)cc1)NC(=O)C(COCc1ccccc1)NC(=O)OC(C)(C)C (stereo unspecified) (Boc-S(Bn)Y(Bn)GL-OMe; configuration not given here) ?
Result: > 100 µM

Q: Any idea what TGI was measured for "Cc1ccc(N(/C=C/C(=O)C(F)(F)F)CC(=O)c2ccc(Cl)c(Cl)c2)cc1" ?
Result: 3.82 µM

Q: Any idea what TGI was measured for "COc1ccc2oc(=O)c(-c3csc(-c4ccccc4)n3)cc2c1" ?
Result: > 100 µM

Q: Any idea what TGI was measured for "OCc1ncc(-c2ccccc2)s1" ?
Result: > 100 µM

Q: Any idea what TGI was measured for "COc1ccc2c(c1)C(=O)c1c-2n(CCCN=[N+]=[N-])c(=O)c2cc(N)ccc12" ?
Result: > 100 µM

Q: Any idea what TGI was measured for "Cc1ncc([N+](=O)[O-])n1CCNC(=O)Cn1ccnc1[N+](=O)[O-]" ?
Result: > 100 µM

Q: Any idea what TGI was measured for "Clc1ccc(N/N=C(\c2ccccc2)c2ccccn2)nc1" ?
Result: > 55.9 µM

Q: Any idea what TGI was measured for "Cc1ccc(S(=O)(=O)N[C@@H](Cc2ccccc2)C(=O)CCl)cc1" ?
Result: 30.7 µM

Q: Any idea what TGI was measured for "Cn1c(-c2cccs2)cc(-c2ccsc2)c1-c1cccs1" ?
Result: > 100 µM

Q: Any idea what TGI was measured for COc1ccc(C2CC(c3cccc(OC)c3)=NN2C(=O)c2cc(OC)c(OC)c(OC)c2)cc1 (stereo unspecified) ?
Result: 1.71 µM

Q: Any idea what TGI was measured for "CCOc1ccc2c(c1)C(=O)c1c-2n(CCCN)c(=O)c2cc([N+](=O)[O-])ccc12" ?
Result: 1.95 µM

Q: Any idea what TGI was measured for "C=C(C[C@@H](O)[C@H](C)NC(=O)OCc1ccccc1)C(=O)OC(C)(C)C" ?
Result: > 100 µM

Q: Any idea what TGI was measured for CC(C)(C)CN1[C@@H]2CCCC[C@H]2N(CC(C)(C)C)P1(=O)C(O)/C=C/c1ccccc1 (stereo partly specified) ?
Result: > 100 µM

Q: Any idea what TGI was measured for "O=C1O/C(=C(/Cl)c2c3ccccc3cc3ccccc23)c2ccccc21" ?
Result: 58 µM
